- system: Mu-type opioid receptor (Mus musculus)
- protocol description: Irreversible antagonist activity at mouse vas deferens mu receptor against DADLE after 30 min at 200 nM
- Type: functional, tissue-based
attribute measured: Ratio

molecule | Ratio
CC(=O)/C=C/C(=O)N[C@@H]1CCC2(O)C3Cc4ccc(O)c5c4C2(CCN3CC2CC2)C1O5 (stereo partly drawn) | 5

Your task in this section: give Ratio for each listed record.
1. O=C(CSSc1ccccc1[N+](=O)[O-])N[C@@H]1CCC2(O)C3Cc4ccc(O)c5c4C2(CCN3CC2CC2)C1O5 (stereo partly drawn)
2. C=CCN1CCC23c4c5ccc(O)c4OC2[C@H](NC(=O)/C=C/C(=O)OC)CCC3(O)C1C5 (stereo partly drawn)

RESULT:
[0.98, 1.1]

Cited source: ChEMBL document CHEMBL1122615
